- Tested on: C2O4^2− transport, MDCK cells
- Experiment: In vitro litholytic activity: C2O4^2− transport inhibition, Transwell chamber with MDCK cells
- Type: cell-based, canine
- Cond: Canis lupus familiaris; 100 μmol/L, MDCK cells in Transwell; mean ± SD of three replicates; read-out: Transport Inhibition Rate (%) C2O4^2−
Give inhibition at 100 µM for every item shown.
Give bare numbers, in %.

Here's what some known entries look like.
input: # query: inhibition at 100 µM of entry `C=CCOC(=O)c1c(C)cc(OC(=O)c2c(C)cc(OCC=C)c(C)c2O)c(C)c1O`
output: -11.3

input: Can you look up the measured inhibition at 100 µM of `CCCOc1cc(C)c(C(=O)Oc2cc(C)c(C(=O)OCC#N)c(O)c2C)c(O)c1C` for me?
output: 15.7

input: For the compound shown here, `CCOc1cc(C)c(C(=O)Oc2cc(C)c(C(=O)OC)c(O)c2C)c(O)c1C` , give the reported inhibition at 100 µM.
output: -4.23

New cases:
input: So what does the record say about inhibition at 100 µM for `C=CCOc1cc(C)c(C(=O)Oc2cc(C)c(C(=O)OCC#N)c(O)c2C)c(O)c1C` ?
output: 10.7
